# Test system: TIE2
# Construct: gene TEK
# assay-conditions: concentration: 1 μM, replicates: in singlicate; n = 1;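 further: KINOMEscan kinase panel screen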
Outcome: satisfied for %Inh of at least 20%; not satisfied for anything lower.

Given the entry Clc1cc(Cl)cc(Nc2ccnc(Nc3cc(Cl)cc(Cl)c3)n2)c1 , answer whether its %Inh meets or surpasses 20%.
not satisfied

Given the entry Cc1ccc(-c2cc(-c3c[nH]nc3-c3ccccn3)ccn2)cc1 , answer whether its %Inh meets or surpasses 20%.
not satisfied

Reported %Inh reaches at least 20% for Cn1ccc2ncnc(Oc3ccc(NC(=O)Nc4ccccc4)cc3)c21 ?
not satisfied

Decide: is the reported value of %Inh for O=C(Nc1ccccc1)Nc1cccc(Oc2ccc3nccn3n2)c1 equal to or greater than 20%?
satisfied

Is the recorded value of %Inh equal to or greater than 20% for this molecule? O=C1NC(=O)C(N2CCc3ccccc32)=C1c1ccccc1Cl
not satisfied

I'd appreciate it if you could say whether COc1ccc2nc(-c3cccc(C)n3)nc(Nc3ccncc3)c2c1 has %Inh at least equal to 20%.
not satisfied

Check the entry Cl.c1ccc(-c2n[nH]cc2-c2ccnc(-c3ccc(CN4CCOCC4)cc3)c2)nc1 : does %Inh equal or exceed 20%?
satisfied

// inclusive: %Inh at least 20%? input: COc1cc2nccc(Nc3ccc(NC(=O)c4ccc(C)cc4)c(O)c3)c2cc1OC.Cl
not satisfied

Has CCn1c(-c2cccnc2O)nc2cnccc21 a recorded %Inh greater than or equal to 20%?
not satisfied

Dear colleague, could you confirm whether Cn1cncc1-c1ccc2ncnc(Nc3ccc(OCc4ccccc4)cc3)c2c1 has %Inh at or above 20%?
not satisfied

Identify whether the reported %Inh of the following molecule is 20% or greater: O=C(Nc1n[nH]c2cc(-c3cccc(F)c3F)ccc12)C1CC1
not satisfied

I'd appreciate it if you could say whether COc1ccc(C2=C(Nc3cccc(C(=O)O)c3)C(=O)NC2=O)cc1 has %Inh at least equal to 20%.
satisfied

%Inh >= 20% for Cc1c(Cn2ccn3c(=O)cc(N4CCOCC4)nc23)cccc1C(F)(F)F ?
not satisfied

Please indicate if the recorded %Inh for CC1=C(C(=O)Nc2cc3cn[nH]c3cc2F)C(c2ccc(C(F)(F)F)cc2)CC(=O)N1 (stereo not drawn) meets or exceeds 20%.
not satisfied

Please check the record COC(=O)c1c(-c2ccccc2)c2cc(C(=O)O)ccc2c(=O)n1Cc1ccccc1 and state if its %Inh is at or above 20%.
not satisfied

---

# Tested on: FLT3-autoinhibited
# assay-conditions: concentration: 1 μM, replicates: in singlicate; n = 1
readout-kind: %Inh (%)
State just the number; it will be interpreted in %.

So what %Inh did Cc1ccccc1-n1cnc2c(N)ncnc21 get with FLT3-autoinhibited?
0

Item: CCn1c(-c2cccnc2O)nc2cnccc21 Test system: FLT3-autoinhibited Read-out: %Inh Value: ?
0

Look up %Inh with FLT3-autoinhibited for this compound: COc1ccc(C2=C(Nc3cccc(C(=O)O)c3)C(=O)NC2=O)cc1
17

Request: %Inh, test system FLT3-autoinhibited, entry O=C(Nc1n[nH]c2nc(-c3nccs3)c(Br)cc12)C1CCCC1
10

Look up %Inh with FLT3-autoinhibited for this compound: O=C(Nc1n[nH]c2cc(-c3cccc(F)c3F)ccc12)C1CC1
12

---

# Test system: PCTK1
# Construct: gene CDK16
# assay-conditions: concentration: 1 μM, replicates: in singlicate; n = 1
readout-kind: %Inh (%)
Answer with a number only, understood to be in %.

Given the entry Cc1cccc(-c2cc(Nc3ccncc3)c3ccccc3n2)n1 [GSK223675] , what %Inh was observed with PCTK1?
13

Look up %Inh with PCTK1 for this compound: COc1ccccc1CNC(=O)c1cc(C(=O)c2ccccc2C)c[nH]1 [GSK364507]
4

// map Cc1c(O)cccc1Nc1ccnc2ccc(C(F)(F)F)cc12.Cl [GW466413] to recorded %Inh (system: PCTK1)
0

Find %Inh (PCTK1) for the entry Cc1ccc(NC(=O)Nc2cccc(Cl)c2)cc1-c1ccc(C(=O)Nc2ccncc2)cc1 [GSK1398468]
0

Any idea what %Inh came out for COc1ccc(CNC(=O)NC2CCN(c3ccnc(Nc4cc(OC)c(OC)c(OC)c4)n3)C2)cc1 (stereo not drawn) [GSK1379748] on PCTK1?
7

Param readout= %Inh; system= PCTK1; entry= CC(C)(C)c1ccc(C(=O)Nc2cn3cc(-c4cccnc4)ccc3n2)cc1 ; returns value.
0

Field: %Inh (PCTK1). Entry: Cc1c(Cn2ccn3c(=O)cc(N4CCOCC4)nc23)cccc1C(F)(F)F [GSK2289044]
2

Any idea what %Inh came out for Fc1cc(Cl)ccc1Nc1ccnc2cc(I)ccc12 [GW551191] on PCTK1?
4

Given the entry Clc1cc(Cl)cc(Nc2ccnc(Nc3cc(Cl)cc(Cl)c3)n2)c1 [GSK175726] , what %Inh was observed with PCTK1?
0

---

# Tested on: NEK10
# assay-conditions: concentration: 1 μM, replicates: in singlicate; n = 1
readout-kind: %Inh (%)
Reply with just the number (in %).

Please look up its %Inh: Cc1cccc(-c2nc(Nc3ccc4[nH]ncc4c3)c3ccccc3n2)n1 [GW857175]
54

Please give the measured %Inh for this molecule: COc1ccc2nc(-c3cccc(C)n3)nc(Nc3ccncc3)c2c1 [GSK204919]
3

Name the reported %Inh value associated with the molecule Cl.c1ccc(-c2n[nH]cc2-c2ccnc(-c3ccc(CN4CCOCC4)cc3)c2)nc1 [GW776245]
0

Would you kindly share the measured %Inh for O=C(Nc1ccccc1)Nc1cccc(Oc2ccc3nccn3n2)c1 ?
0

Give its %Inh value. Item: CCCc1ccc(S(=O)(=O)NC2CCN(c3ccnc(Nc4ccc(F)cc4)n3)C2)cc1 (centres unmarked) [GSK1379715]
3

Consider the molecule Cc1cccc(-c2nc(Nc3cccc(C(N)=O)c3)c3ccccc3n2)n1 [GW876019] and give its measured %Inh.
12

Using the record for CCn1c(-c2cccnc2O)nc2cnccc21 [SB-736715] , report its %Inh.
0

Recorded %Inh of CC(C)(C)c1ccc(C(=O)Nc2cn3cc(Cl)ccc3n2)cc1 , please.
4

---

# System: RSK2(Kin.Dom.2-C-terminal)
# Construct: gene RPS6KA3
# assay-conditions: concentration: 1 μM, replicates: in singlicate; n = 1
Outcome label depends on %Inh relative to 1%: at/above gives T, below gives F.

// inclusive: %Inh at least 1%? input: COC(=O)c1c(-c2ccccc2)c2cc(OC)ccc2c(=O)n1Cc1ccccc1
T

Is it the case that Cn1ccc2ncnc(Oc3ccc(NC(=O)Nc4ccccc4)cc3)c21 has %Inh reaching or exceeding 1%?
F

In plain terms: is recorded %Inh at least 1% for O=C1NC(=O)C(N2CCc3ccccc32)=C1c1ccccc1Cl ?
T

Check if %Inh >= 1% (inclusive). Item: Cc1cc(N2Cc3ccccc3C2)nc(Nc2ccc(S(=O)(=O)N3CCOCC3)cc2)n1.Cl
F

For this compound, is measured %Inh 1% or higher? CS(=O)(=O)c1ccc(-c2nc3n(c2-c2ccncc2)CCC3)cc1
T

// inclusive: %Inh at least 1%? input: COC(=O)c1c(-c2ccccc2)c2cc(C(=O)O)ccc2c(=O)n1Cc1ccccc1
F

Evaluate COc1ccc(C2=C(Nc3cccc(C(=O)O)c3)C(=O)NC2=O)cc1 : %Inh at minimum 1%?
T

---

# System: PIP5K1A
# assay-conditions: concentration: 1 μM, replicates: in singlicate; n = 1
readout-kind: %Inh (%)
Quick reminder: number only, in %, skip the unit.

# returns recorded %Inh (system: PIP5K1A) for CC(=O)Nc1nc2cnc(Nc3cc(NC(=O)c4cccc(CCC#N)c4)ccc3C)nc2s1
13

Item: Cl.c1ccc(-c2n[nH]cc2-c2ccnc(-c3ccc(CN4CCOCC4)cc3)c2)nc1 [GW776245] Test system: PIP5K1A Read-out: %Inh Value: ?
0

Hi! What's the reported %Inh for CC(C)(C)c1ccc(C(=O)Nc2cn3cc(Cl)ccc3n2)cc1 on PIP5K1A?
0

Write down the reported %Inh of CCCc1ccc(S(=O)(=O)NC2CCN(c3ccnc(Nc4ccc(F)cc4)n3)C2)cc1 (centres unmarked) [GSK1379715] , test system: PIP5K1A.
19

Form entry - test system: PIP5K1A; read-out: %Inh; compound: CS(=O)(=O)c1ccc(-c2c(-c3ncn[nH]3)sc(N3CCOCC3)c2C#N)cc1
0

Give recorded %Inh with PIP5K1A for the following compound: Cc1c(Cn2ccn3c(=O)cc(N4CCOCC4)nc23)cccc1C(F)(F)F [GSK2289044]
0

Under PIP5K1A: %Inh value of Cc1cccc(-c2nc(Nc3ccc4[nH]ncc4c3)c3ccccc3n2)n1 [GW857175] ?
0

Please provide the recorded %Inh for Fc1cc(Cl)ccc1Nc1ccnc2cc(I)ccc12 [GW551191] , tested on PIP5K1A.
0

Please provide the recorded %Inh for Fc1cc(Cl)ccc1Nc1ccnc2cc(-c3ccc(CN4CCCCC4)o3)ccc12 [GW560116] , tested on PIP5K1A.
0

Please state recorded %Inh (tested on PIP5K1A) of CN(C)CCN(C)C(=O)c1cc(-c2ccncc2)c(-c2ccc(Cl)c(O)c2)o1.Cl.Cl [SB-710397]
1

Request body: readout %Inh, system PIP5K1A, query COc1cccc(-c2cc(-c3c[nH]nc3-c3ccccn3)ccn2)c1 [GW680338] . Return the value.
19

Provide value of %Inh for this record tested with PIP5K1A: Cc1cc(NCC(c2ccccc2)c2ccccc2)nc(NCc2ccc(C(F)(F)F)cc2)n1 [GW497681]
0

Any idea what %Inh came out for Cn1ccc2ncnc(Oc3cccc(C(=O)Nc4ccccc4)c3)c21 on PIP5K1A?
0

Observed %Inh on PIP5K1A for NC(=O)c1nnc2ccccc2c1N , please.
0

API: value(readout=%Inh, system=PIP5K1A) for record Cc1cccc(-c2nc(Nc3ccncc3)c3ccccc3n2)n1 [GW855857]
10

What is its %Inh for PIP5K1A? Entry: Cc1cccc(-c2cc(Nc3ccncc3)c3ccccc3n2)n1 [GSK223675]
0

Form field: %Inh recorded for Cc1cccc(-c2nc(-c3ccc(S(C)(=O)=O)cc3)sc2-c2ccnc(NCCc3ccccc3)c2)c1 with PIP5K1A (enter value)
2
